B1: PTPRD (parent)
chain: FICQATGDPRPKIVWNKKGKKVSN

variants of: B1; assay: protein stability index of a GFP-peptide fusion (GPS, HEK-293T) (PSI 1-6); higher = more stable; conditions: c terminus: a fixed tail appended;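 also: lentivirally expressed fusions sorted by FACS into six bins by GFP to DsRed ratio, PSI derived from sequencing read proportions per bin multiplied by bin number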
Mark no for protein stability index values under 2, and yes for everything at or above.

// known answers, use as guide
FICQATGDPRPKIVWKKKGKKVSN | yes
FICQATGDPRPKIVWNKKGKKVSY | yes
FICQATGDPRPKIVWNKKGKRVSN | yes
FICQRTGDPRPKIVWNKKGKKVSN | yes
FICQATGDPRPKIHWNKKGKKVSN | yes
FICQATGDPRPKIVWNKKGKKVVN | yes
FICQATGDPRPKIVMNKKGKKVSN | yes
FICQATGDPRPKIVHNKKGKKVSN | yes
FICQATGDPRPKIVWNKKGKKVSL | no
FICQAAGDPRPKIVWNKKGKKVSN | no

[ask] Confirm if protein stability index reported for the variant `FICQATGSPRPKIVWNKKGKKVSN` is 2 or above.
[reply] no

[ask] Would you say `FICQATGDPRPKIVWNCKGKKVSN` shows protein stability index at minimum 2?
[reply] no

[ask] Determine whether this variant has protein stability index no lower than 2: `FICQATGHPRPKIVWNKKGKKVSN`
[reply] no

[ask] Does protein stability index meet or surpass 2 for `FICQATGDHRPKIVWNKKGKKVSN` ?
[reply] yes

[ask] # bool: protein stability index of `FICMATGDPRPKIVWNKKGKKVSN` >= 2
[reply] no

[ask] Evaluate `FICQATGDPRPKIVWNVKGKKVSN` : protein stability index at minimum 2?
[reply] no

[ask] Has `FICQATGDPRPKIVWNKKGKKVEN` a recorded protein stability index greater than or equal to 2?
[reply] yes

[ask] protein stability index >= 2 for `FICQATGCPRPKIVWNKKGKKVSN` ?
[reply] no

[ask] Kindly determine if protein stability index recorded for `FICQATGDPRPKKVWNKKGKKVSN` is above or exactly 2.
[reply] no

[ask] Kindly determine if protein stability index recorded for `FICCATGDPRPKIVWNKKGKKVSN` is above or exactly 2.
[reply] no

[ask] Hi team, for `FICQASGDPRPKIVWNKKGKKVSN` , is the recorded protein stability index at or above 2?
[reply] yes

[ask] Is reported protein stability index greater than or equal to 2 here: `FICQANGDPRPKIVWNKKGKKVSN`
[reply] no

[ask] Exam item: decide whether the reported protein stability index for `FICQATGDPRPKIVWNKAGKKVSN` is at least 2.
[reply] no
